Value source: patent US20220177596A1

# pKd values compiled below
assayed-target: T1, human-CD40 monomer (human, UniProt P25942 21-193, limits assumed)
T1 construct: also called hCD40-monomer; human-CD40-monomer protein
T1 sequence (P25942 21-193 limits assumed): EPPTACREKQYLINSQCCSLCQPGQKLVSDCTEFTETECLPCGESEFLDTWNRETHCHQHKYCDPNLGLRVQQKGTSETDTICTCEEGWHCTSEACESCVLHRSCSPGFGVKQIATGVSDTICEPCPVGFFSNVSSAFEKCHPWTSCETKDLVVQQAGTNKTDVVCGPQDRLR
assay-remarks: SPR 2 pt screen, Ab on protein A
Description: The VH sequences were formatted in the context of an IgG1.3f isotype. The Vκ sequences were formatted as a full light chain with a common CL sequence. All 55 combinations of these humanized HC and LC constructs, as well as the chimeric Y1238 molecule were expressed as 3 ml supernatants for binding analysis by SPR. […]
# pKd = -log10(concentration in molar units)

Worked set:
- binder: "humanized Y1238 hz51 (hz-HC11 / hz-LC1), IgG1.3f (antibody, V domains shown, IgG1.3f heavy constant, common CL; expression supernatant; also called Sup 51) VH: QVQLVQSGAEVKKPGASVKVSCKASGYAFTNYLIEWVRQRPGQGLEWMGVINPGSGGTNYNEKFKGRVTMTRDKSSSTAYMELSRLRSDDTAVYFCARSQLGRRFDYWGQGTLVTVSS VL: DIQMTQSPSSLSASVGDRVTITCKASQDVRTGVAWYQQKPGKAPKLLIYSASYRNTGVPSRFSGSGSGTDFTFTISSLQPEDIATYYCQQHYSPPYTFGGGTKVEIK"
  recorded-endpoint: "pKd"
  quantitative-result: 8.17
- binder: "humanized Y1238 hz45 (hz-HC9 / hz-LC5), IgG1.3f (antibody, V domains shown, IgG1.3f heavy constant, common CL; expression supernatant; also called Sup 45) VH: QVQLVQSGAEVVKPGASVKVSCKASGYAFTNYLIEWVRQRPGQGLEWMGVINPGSGGTNYNEKFKGRVTLTADKSSSTAYMQLSRLRSDDTAVYFCARSQLGRRFDYWGQGTTVTVSS VL: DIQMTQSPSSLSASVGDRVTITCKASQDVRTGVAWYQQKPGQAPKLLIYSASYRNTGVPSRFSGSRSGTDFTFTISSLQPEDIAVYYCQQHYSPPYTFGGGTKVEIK"
  recorded-endpoint: "pKd"
  quantitative-result: 8.02

Please look at the following binder next.
May I ask what pKd has been recorded for humanized Y1238 hz1 (hz-HC1 / hz-LC1), IgG1.3f (antibody, V domains shown, IgG1.3f heavy constant, common CL; expression supernatant; also called Sup 1) VH: QVQLVQSGAEVKKPGASVKVSCKASGYAFTNYLIEWVRQAPGQGLEWMGVINPGSGGTNYNEKFKGRVTMTRDTSISTAYMELSRLRSDDTAVYYCARSQLGRRFDYWGQGTLVTVSS VL: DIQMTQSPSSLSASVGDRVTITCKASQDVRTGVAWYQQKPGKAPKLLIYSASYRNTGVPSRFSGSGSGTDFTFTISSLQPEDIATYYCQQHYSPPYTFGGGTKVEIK ?
8.38
